Molecular target: rat CB1 receptors (HEK cells) (Rattus norvegicus (Rat))
Sequence (P20272 whole entry): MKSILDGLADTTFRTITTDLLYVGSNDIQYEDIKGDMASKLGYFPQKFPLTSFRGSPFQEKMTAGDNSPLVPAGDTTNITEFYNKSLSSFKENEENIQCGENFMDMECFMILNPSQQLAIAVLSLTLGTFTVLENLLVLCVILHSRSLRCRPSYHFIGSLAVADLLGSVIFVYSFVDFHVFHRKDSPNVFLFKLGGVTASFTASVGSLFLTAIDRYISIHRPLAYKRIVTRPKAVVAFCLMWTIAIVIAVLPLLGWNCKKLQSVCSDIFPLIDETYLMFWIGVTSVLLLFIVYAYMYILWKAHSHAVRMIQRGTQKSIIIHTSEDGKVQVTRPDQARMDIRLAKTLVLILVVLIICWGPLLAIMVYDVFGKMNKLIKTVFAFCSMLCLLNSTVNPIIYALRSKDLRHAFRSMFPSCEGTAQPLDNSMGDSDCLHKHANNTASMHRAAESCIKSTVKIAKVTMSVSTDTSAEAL
Assay: rat CB1 cyclase functional assay (HitHunter cAMP)
Assay type: cell-based
Each record's class is read off its EC50 using these ranges: L: < 3 µM; M: ≥ 3 µM and < 5 µM; H: ≥ 5 µM

Input `CC(C)(C)/C(COc1ccc(C(F)(F)F)cc1C(=O)/N=c1\sc(C(C)(C)C)cn1C[C@H]1CCCO1)=N\O` ; output its category H

Input `CC(C)(C)c1cn(C[C@H]2CCCO2)/c(=N/C(=O)c2cc(C(F)(F)F)ccc2OCc2ccccn2)s1` ; output its category H

Input `CC(C)(C)c1cn(C[C@@H]2CCCO2)/c(=N/C(=O)c2cc(C(F)(F)F)ccc2OC[C@H](N)CO)s1` ; output its category L

Input `CN1CC(COc2ccc(C(F)(F)F)cc2C(=O)/N=c2\sc(C(C)(C)C)cn2C[C@H]2CCCO2)C1` ; output its category H

Input `CN1CCC(COc2ccc(C(F)(F)F)cc2C(=O)/N=c2\sc(C(C)(C)C)cn2C[C@H]2CCCO2)CC1` ; output its category H

Input `CC(C)(C)c1cn(C[C@H]2CCCO2)/c(=N/C(=O)c2cc(C(F)(F)F)ccc2OC[C@H](N)CO)s1` ; output its category L

Input `CC(C)(C)c1cn(C[C@H]2CCCO2)/c(=N/C(=O)c2cc(C(F)(F)F)ccc2OCCNCCO)s1` ; output its category L

Input `CC(C)(C)c1cn(C[C@H]2CCCO2)/c(=N/C(=O)c2cc(C(F)(F)F)ccc2OCc2cnccn2)s1` ; output its category M

Input `CC(C)(C)c1cn(C[C@H]2CCCO2)/c(=N/C(=O)c2cc(C(F)(F)F)ccc2OC[C@@H]2CCCN2)s1` ; output its category M

Input `CN1CC[C@H](COc2ccc(C(F)(F)F)cc2C(=O)/N=c2\sc(C(C)(C)C)cn2C[C@H]2CCCO2)C1` ; output its category H

Input `CC(C)(C)c1cn(C[C@H]2CCCO2)/c(=N/C(=O)c2cc(C(F)(F)F)ccc2OC[C@@H]2CCN2)s1` ; output its category M

Input `CN1CCCC[C@@H]1COc1ccc(C(F)(F)F)cc1C(=O)/N=c1\sc(C(C)(C)C)cn1C[C@H]1CCCO1` ; output its category M

Input `CC(C)(C)NOc1ccc(C(F)(F)F)cc1C(=O)/N=c1\sc(C(C)(C)C)cn1C[C@H]1CCCO1` ; output its category H

====

Molecular target: human CB2 receptors (Homo sapiens (Human), UniProt P34972)
Sequence (P34972 whole entry): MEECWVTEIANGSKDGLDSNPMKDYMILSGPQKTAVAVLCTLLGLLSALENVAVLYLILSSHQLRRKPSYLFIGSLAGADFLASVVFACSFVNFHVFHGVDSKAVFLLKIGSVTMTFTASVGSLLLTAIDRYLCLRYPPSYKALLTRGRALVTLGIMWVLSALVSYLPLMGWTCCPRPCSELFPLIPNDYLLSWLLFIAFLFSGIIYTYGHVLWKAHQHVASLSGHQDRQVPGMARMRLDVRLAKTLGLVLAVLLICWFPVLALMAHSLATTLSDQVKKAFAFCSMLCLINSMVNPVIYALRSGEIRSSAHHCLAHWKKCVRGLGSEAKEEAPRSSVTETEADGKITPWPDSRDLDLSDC
Assay: human CB2 radioligand binding assay ([3H]CP 55,940 competition)
pKi: −log10 of the molar value.
Classify by measured pKi: Fulfilled if it is equal to or exceeds 8, Not fulfilled if it is smaller.

Say whether `CC(C)(C)OC(=O)NNc1ccc(C(F)(F)F)cc1C(=O)/N=c1\sc(C(C)(C)C)cn1C[C@H]1CCCO1` shows pKi of 8 or more. Fulfilled

Say whether CC(COc1ccc(C(F)(F)F)cc1C(=O)/N=c1\sc(C(C)(C)C)cn1C[C@H]1CCCO1)=NOC1CCCCO1 (some centres unmarked) shows pKi of 8 or more. Not fulfilled

Say whether `CC(C)(C)c1cn(C[C@H]2CCCO2)/c(=N/C(=O)c2cc(C(F)(F)F)ccc2OC[C@H](N)CO)s1` shows pKi of 8 or more. Fulfilled

Say whether `CC(C)(C)c1cn(C[C@H]2CCCO2)/c(=N/C(=O)c2cc(C(F)(F)F)ccc2ON=C2CCCC2)s1` shows pKi of 8 or more. Fulfilled

Say whether `COCCn1cc(C(C)(C)C)s/c1=N\C(=O)c1cc(C(F)(F)F)ccc1ONC(C)(C)C` shows pKi of 8 or more. Not fulfilled

====

Target: human CB2 receptors (Homo sapiens (Human))
Experiment: human CB2 radioligand binding assay ([3H]CP 55,940 competition)
Settings: HEK293 membranes, 0.5 nM [3H]CP 55,940; read-out: human CB2 (Ki)
Assignment: determine reported log10 Ki for the given molecules.
// stored as log10 of Ki expressed in nM

Form: Entry = `CC(C)(C)c1cn(C[C@H]2CCCO2)/c(=N/C(=O)c2cc(C(F)(F)F)ccc2OCc2nccs2)s1` | System = human CB2 receptors (Homo sapiens (Human)) | log10 Ki = ____ 0.74

Form: Entry = `CN1CCC[C@H]1CNc1ccc(C(F)(F)F)cc1C(=O)/N=c1\sc(C(C)(C)C)cn1C[C@H]1CCCO1` | System = human CB2 receptors (Homo sapiens (Human)) | log10 Ki = ____ 1.56

Form: Entry = `CC(C)(C)C(=O)COc1ccc(C(F)(F)F)cc1C(=O)/N=c1\sc(C(C)(C)C)cn1C[C@H]1CCCO1` | System = human CB2 receptors (Homo sapiens (Human)) | log10 Ki = ____ -0.05

Form: Entry = `CN1CC[C@H]1COc1ccc(C(F)(F)F)cc1C(=O)/N=c1\sc(C(C)(C)C)cn1C[C@H]1CCCO1` | System = human CB2 receptors (Homo sapiens (Human)) | log10 Ki = ____ 0.87

Form: Entry = `CC(C)(C)/C(COc1ccc(C(F)(F)F)cc1C(=O)/N=c1\sc(C(C)(C)C)cn1C[C@H]1CCCO1)=N/O` | System = human CB2 receptors (Homo sapiens (Human)) | log10 Ki = ____ 1.08

Form: Entry = `Cn1ccnc1COc1ccc(C(F)(F)F)cc1C(=O)/N=c1\sc(C(C)(C)C)cn1C[C@H]1CCCO1` | System = human CB2 receptors (Homo sapiens (Human)) | log10 Ki = ____ 1.72

Form: Entry = `CCN(CC)Oc1ccc(C(F)(F)F)cc1C(=O)/N=c1\sc(C(C)(C)C)cn1C[C@H]1CCCO1` | System = human CB2 receptors (Homo sapiens (Human)) | log10 Ki = ____ 1.34

====

Quick record of pKi values for rat CB2 receptors (Rattus norvegicus (Rat)).
Give only the number. pKi is defined as minus log10 of concentration in molar units.

Request the reported pKi associated with `CC(COc1ccc(C(F)(F)F)cc1C(=O)/N=c1\sc(C(C)(C)C)cn1C[C@H]1CCCO1)=NO` 9.30

Request the reported pKi associated with `CCN1CCC[C@H]1COc1ccc(C(F)(F)F)cc1C(=O)/N=c1\sc(C(C)(C)C)cn1C[C@H]1CCCO1` 8.07

Request the reported pKi associated with CN1CCN(C)C(COc2ccc(C(F)(F)F)cc2C(=O)/N=c2\sc(C(C)(C)C)cn2C[C@@H]2CCCO2)C1 (stereo partly shown) 7.89

Request the reported pKi associated with `CC(C)(C)c1cn(C[C@H]2CCCO2)/c(=N/C(=O)c2cc(C(F)(F)F)ccc2OCc2cnco2)s1` 8.05

Request the reported pKi associated with `COCCn1cc(C(C)(C)C)s/c1=N\C(=O)c1cc(C(F)(F)F)ccc1ONC(C)(C)C` 8.28

Request the reported pKi associated with `CN1CCCC[C@H]1COc1ccc(C(F)(F)F)cc1C(=O)/N=c1\sc(C(C)(C)C)cn1C[C@H]1CCCO1` 8.85

Request the reported pKi associated with `CN1CC[C@@H]1COc1ccc(C(F)(F)F)cc1C(=O)/N=c1\sc(C(C)(C)C)cn1C[C@H]1CCCO1` 7.77

====

Target: rat CB2 receptors (HEK cells) (Rattus norvegicus (Rat))
Assay: rat CB2 cyclase functional assay (HitHunter cAMP)
Assay type: cell-based
Assignment: determine reported log10(EC50) for the given molecules.
// stored as log10 of EC50 expressed in nM

Form: Entry = `CC(C)(C)c1cn(C[C@H]2CCCO2)/c(=N/C(=O)c2cc(C(F)(F)F)ccc2OCc2cnco2)s1` | System = rat CB2 receptors (HEK cells) (Rattus norvegicus (Rat)) | log10(EC50) = ____ -0.30

Form: Entry = `CC(C)(C)c1cn(C[C@H]2CCCO2)/c(=N/C(=O)c2cc(C(F)(F)F)ccc2OCc2nccs2)s1` | System = rat CB2 receptors (HEK cells) (Rattus norvegicus (Rat)) | log10(EC50) = ____ -0.48

Form: Entry = `CN1CC[C@@H](COc2ccc(C(F)(F)F)cc2C(=O)/N=c2\sc(C(C)(C)C)cn2C[C@H]2CCCO2)C1` | System = rat CB2 receptors (HEK cells) (Rattus norvegicus (Rat)) | log10(EC50) = ____ 0.70

Form: Entry = `CC(C)(C)c1cn(C[C@H]2CCCO2)/c(=N/C(=O)c2cc(C(F)(F)F)ccc2OCCNCCO)s1` | System = rat CB2 receptors (HEK cells) (Rattus norvegicus (Rat)) | log10(EC50) = ____ -0.74

Form: Entry = `CC(C)(C)c1cn(C[C@H]2CCCO2)/c(=N/C(=O)c2cc(C(F)(F)F)ccc2OC[C@@H]2CCCN2)s1` | System = rat CB2 receptors (HEK cells) (Rattus norvegicus (Rat)) | log10(EC50) = ____ -0.41

Form: Entry = `CC(C)(C)c1cn(C[C@H]2CCCO2)/c(=N/C(=O)c2cc(C(F)(F)F)ccc2OC[C@@H]2CNCCO2)s1` | System = rat CB2 receptors (HEK cells) (Rattus norvegicus (Rat)) | log10(EC50) = ____ -0.43

Form: Entry = `CC(C)(C)c1cn(C[C@H]2CCCO2)/c(=N/C(=O)c2cc(C(F)(F)F)ccc2OC[C@H]2CCCO2)s1` | System = rat CB2 receptors (HEK cells) (Rattus norvegicus (Rat)) | log10(EC50) = ____ -1.15

Form: Entry = `CC(C)(C)c1cn(C[C@H]2CCCO2)/c(=N/C(=O)c2cc(C(F)(F)F)ccc2OC[C@@H]2CCCO2)s1` | System = rat CB2 receptors (HEK cells) (Rattus norvegicus (Rat)) | log10(EC50) = ____ -0.85

Form: Entry = `CC(C)(C)c1cn(C[C@H]2CCCO2)/c(=N/C(=O)c2cc(C(F)(F)F)ccc2OCc2cccnc2)s1` | System = rat CB2 receptors (HEK cells) (Rattus norvegicus (Rat)) | log10(EC50) = ____ -0.68

Form: Entry = `CN1CC[C@H](COc2ccc(C(F)(F)F)cc2C(=O)/N=c2\sc(C(C)(C)C)cn2C[C@H]2CCCO2)C1` | System = rat CB2 receptors (HEK cells) (Rattus norvegicus (Rat)) | log10(EC50) = ____ 0.55

Form: Entry = `CC(C)(O)CCOc1ccc(C(F)(F)F)cc1C(=O)/N=c1\sc(C(C)(C)C)cn1C[C@H]1CCCO1` | System = rat CB2 receptors (HEK cells) (Rattus norvegicus (Rat)) | log10(EC50) = ____ 0.08

Form: Entry = `COCCn1cc(C(C)(C)C)s/c1=N\C(=O)c1cc(C(F)(F)F)ccc1OCc1cnccn1` | System = rat CB2 receptors (HEK cells) (Rattus norvegicus (Rat)) | log10(EC50) = ____ 0.65
